Test system: painful syndrome produced in mice by phenylbenzoquinone
Experiment: Analgesic test of Siegmund, Cadmus and Lu (phenylbenzoquinone-induced painful syndrome, stretching)
Assay type: in vivo, mice (Swiss strain)
Recorded Conditions: oral, dose 1/40 of LD50, 30 minutes before phenylbenzoquinone
Counter-ions that a name gives are not always drawn.
The label is MET for Analgesic activity at 1/40 of LD50 below 80% and NOT MET for Analgesic activity at 1/40 of LD50 equal to or exceeding 80%.

| Compound | Answer Label |
| --- | --- |
| CC(Oc1cccc(C(=O)c2ccc(Br)cc2)c1)C(=O)O (centres unmarked) | MET |
| Cc1ccc(C(=O)c2cccc(OC(C)C(=O)O)c2)cc1 (centres unmarked) [Example 8] | NOT MET |
| CC(Oc1cccc(C(=O)c2ccccc2)c1)C(=O)O (centres unmarked) [Lysine salt of Ex. 1] | NOT MET |
| CC(Oc1cccc(C(=O)c2ccc(F)cc2)c1)C(=O)O (centres unmarked) | MET |
| CC(Oc1cccc(C(=O)c2ccc(Cl)cc2Cl)c1)C(=O)O (centres unmarked) | MET |
| Cc1c(OC(C)C(=O)O)cccc1C(=O)c1ccc(Cl)cc1 (centres unmarked) [Lysine salt of Ex. 6] | NOT MET |
| CC(Oc1cccc(C(=O)c2ccccc2)c1)C(=O)O (centres unmarked) [Example 1] | NOT MET |
| CCOC(=O)C(C)Oc1cccc(C(=O)c2ccc(Cl)cc2)c1C (centres unmarked) | MET |
| Cc1ccc(C(=O)c2cccc(OC(C)C(=O)O)c2)cc1 (centres unmarked) [Lysine salt of Ex. 8] | MET |
| Cc1ccc(C(=O)c2cccc(OC(C)C(=O)O)c2)c(C)c1 (centres unmarked) | MET |
| Cc1c(OC(C)C(=O)O)cccc1C(=O)c1ccc(Cl)cc1 (centres unmarked) [Example 6] | NOT MET |

====

System: carrageenin oedema
Experiment: Carrageenin oedema test (Winter and Risley's technique), anti-inflammatory activity
Type: in vivo, rats (Wistar strain, female)
Recorded Conditions: rats, inhibition of oedema compared with control batch
Counter-ions that a name gives are not always drawn.
Measured Anti-inflammatory activity at 1/10 of LD50, listed per entry for reference.
Quantity Name: Anti-inflammatory activity at 1/10 of LD50

| Molecule | Observed Measurement |
| --- | --- |
| Cc1c(OC(C)C(=O)O)cccc1C(=O)c1ccccc1 (centres unmarked) [Example 2] | 33% |
| Cc1ccc(C(=O)c2ccc(Cl)cc2)cc1OC(C)C(=O)O (centres unmarked) [Example 7] | 21% |
| CC(Oc1cccc(C(=O)c2ccc(F)cc2)c1)C(=O)O (centres unmarked) [Example 5] | 26% |
| Cc1c(OC(C)C(=O)O)cccc1C(=O)c1ccc(Cl)cc1 (centres unmarked) [Example 6] | 46% |
| CC(Oc1cccc(C(=O)c2ccc(Cl)cc2Cl)c1)C(=O)O (centres unmarked) [Example 3] | 18% |
| CCOC(=O)C(C)Oc1cccc(C(=O)c2ccc(Cl)cc2)c1C (centres unmarked) [Ethyl ester of Example 6] | 62% |
| Cc1ccc(C(=O)c2cccc(OC(C)C(=O)O)c2C)cc1 (centres unmarked) [Example 10] | 32% |
| Cc1ccc(C(=O)c2cccc(OC(C)C(=O)O)c2)cc1 (centres unmarked) [Lysine salt of Ex. 8] | 30% |
